This collection of values is drawn from patent US6737383B1.

- System: winter barley
- PROCEDURE SUMMARY: Test E winter barley
- Format: in vivo, Hordeum vulgare
- MEASUREMENT PARAMETERS: Preemergence; Rate 500 g/ha; 0 to 100 scale where 0 is no effect and 100 is complete control
MEASURED QUANTITY: Plant response rating, Barley (winter)

Kindly note the recorded Plant response rating, Barley (winter) for CC(C)N(C(=O)n1oc(=O)n(CC(F)(F)F)c1=O)c1ccc(F)cc1 , which is 40

Next:
Kindly note the recorded Plant response rating, Barley (winter) for CC(C)Cn1c(=O)on(C(=O)N(c2ccc(F)cc2)C(C)C)c1=O , which is 30

Kindly note the recorded Plant response rating, Barley (winter) for Cc1nn(C)c(C)c1-n1c(=O)on(C(=O)N(c2ccc(F)cc2)C(C)C)c1=O , which is 20

Kindly note the recorded Plant response rating, Barley (winter) for CC1CCCCC1n1c(=O)on(C(=O)N(c2ccc(F)cc2F)C(C)C)c1=O (stereo not shown) , which is 40

* * *

- System: soybean
- PROCEDURE SUMMARY: Test B pre/postemergence soybean
- Assay type: in vivo, Glycine max
- MEASUREMENT PARAMETERS: Rate 500 g/ha, Postemergence; scale 0 to 10, 0 no effect, 10 complete control
MEASURED QUANTITY: Soybean plant response rating

Kindly note the recorded Soybean plant response rating for CC(C)N(C(=O)n1oc(=O)n(Cc2cccs2)c1=O)c1ccc(F)cc1 , which is 2

Kindly note the recorded Soybean plant response rating for CCn1c(=O)on(C(=O)N(c2ccc(Cl)cc2)C(C)C)c1=O , which is 5

Kindly note the recorded Soybean plant response rating for CC(C)N(C(=O)n1oc(=O)n(Cc2cccs2)c1=O)c1ccccc1 , which is 6

Next:
Kindly note the recorded Soybean plant response rating for CC(C)N(C(=O)n1oc(=O)n(C2CCCCC2)c1=O)c1ccc(F)cc1 , which is 7

* * *

Sugarbeets plant response rating values for the compounds below.
- Tested on: sugar beet
- PROCEDURE SUMMARY: Test B pre/postemergence sugar beet
- Type: in vivo, Beta vulgaris
- MEASUREMENT PARAMETERS: Preemergence, Rate 62 g/ha; scale of 0 to 10 where 0 is no effect and 10 is complete control
- Procedure: […] At the same time, these crop and weed species were also treated with postemergence applications of test chemicals formulated in the same manner. […] Treated plants and controls were maintained in a greenhouse for twelve to sixteen days, after which all species were compared to controls and visually evaluated. […]
Reply with just the number.

These recorded examples may help you get a feel for the data.
Sample CCCCn1c(=O)on(C(=O)N(c2ccc(F)cc2)C(C)C)c1=O , system: sugar beet. Its Sugarbeets plant response rating is 0

Sample Cc1ccccc1-n1c(=O)on(C(=O)N(c2ccc(Cl)cc2F)C(C)C)c1=O , system: sugar beet. Its Sugarbeets plant response rating is 0

Sample CC(C)N(C(=O)n1oc(=O)n(C(C)C2CCC2)c1=O)c1ccccc1 (centres unmarked) , system: sugar beet. Its Sugarbeets plant response rating is 0

Sample CC(C)Cn1c(=O)on(C(=O)N(c2ccc(F)cc2)C(C)C)c1=O , system: sugar beet. Its Sugarbeets plant response rating is 0

Sample CC(C)N(C(=O)n1oc(=O)n(CC(F)(F)F)c1=O)c1ccc(F)cc1 , system: sugar beet. Its Sugarbeets plant response rating is 0

Next:
Sample CC(C)N(C(=O)n1oc(=O)n(C(CCl)CCl)c1=O)c1ccc(F)cc1 , system: sugar beet. Its Sugarbeets plant response rating is 3

Sample CC(C)N(C(=O)n1oc(=O)n(-c2ccc3ccccc3c2)c1=O)c1ccc(F)cc1F , system: sugar beet. Its Sugarbeets plant response rating is 0

Sample CC(C)N(C(=O)n1oc(=O)n(C2CCCC2)c1=O)c1ccc(F)cc1F , system: sugar beet. Its Sugarbeets plant response rating is 2
